Reference source: patent US20040258656

# System name: T1, TGFβ2 (transforming growth factor beta 2) (Homo sapiens, UniProt P61812 SEQ:1-112)
# T1 sequence: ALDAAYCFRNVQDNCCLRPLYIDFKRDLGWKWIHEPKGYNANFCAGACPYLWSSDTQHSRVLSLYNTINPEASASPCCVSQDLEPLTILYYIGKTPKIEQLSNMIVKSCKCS
# Test: filter
# Measurement context: chain copies: 2 (inferred, homodimer)
Quick list: binding signal per entry.

# Binder, binding signal
records = [
    ("biased clone 22 (ssRNA, 2'-F C and U) RNA: GGGAGGACGAUGCGGGUGGAUUAUUACAGAGUCUGUAUAGCUGUACCCCCAGACGACUCGCCCGA", "1.1 x Kd of 21a-21"),
    ("biased clone 4 (ssRNA, 2'-F C and U) RNA: GGGAGGACGAUGCGGGGAGGGUAUUACAGAGUAUGUAUAGCUGUACUCCCAGACGACUCGCCCGA", "1.4 x Kd of 21a-21"),
    ("biased clone 25 (ssRNA, 2'-F C and U) RNA: GGGAGGACGAUGCGGGGGCGUUAUUACAGAGUCUGUAUAGCUGUAGCCCCAGACGACUCGCCCGA", "1 x Kd of 21a-21"),
    ("biased clone 26 (ssRNA, 2'-F C and U) RNA: GGGAGGACGAUGCGGGGUGGUUAUUACACAGUAUGUAUAGGUGUACCCCCAGACGACUCGCCCGA", "3.1 x Kd of 21a-21"),
    ("biased clone 18 (ssRNA, 2'-F C and U) RNA: GGGAGGACGAUGCGGGUGGAUUAUUACAGCGUCUGUAUAUCUGUACCCCCAGACGACUCGCCCGA", "1 x Kd of 21a-21"),
    ("biased clone 34 (ssRNA, 2'-F C and U) RNA: GGGAGGACGAUGCGGGGUGGUUAUUAGAGAGUCUGUAUAGCUCUACGCCCAGACGACUCGCCCGA", "1.7 x Kd of 21a-21"),
    ("biased clone 36 (ssRNA, 2'-F C and U) RNA: GGGAGGACGAUGCGGGGAGGAUAUUAUAGAGUCUGUAUAGCUAUACCCCCAGACGACUCGCCCGA", "1.9 x Kd of 21a-21"),
    ("biased clone 21 (ssRNA, 2'-F C and U) RNA: GGGAGGACGAUGCGGAGGGAUUAUUACAGAGUCUGUAUAGCUGUACCCCCAGACGACUCGCCCGA", "0.7 x Kd of 21a-21"),
    ("biased clone 15 (ssRNA, 2'-F C and U) RNA: GGGAGGACGAUGCGGGUGGAAUAUUACGGAGUCUGUAUAGCCGUACUCCCAGACGACUCGCCCGA", "0.4 x Kd of 21a-21"),
    ("biased clone 17 (ssRNA, 2'-F C and U) RNA: GGGAGGACGAUGCGGGGGGACUAUUAGUGAGUCUGUAUAGCACUACCCCCAGACGACUCGCCCGA", "0.8 x Kd of 21a-21"),
    ("biased clone 20 (ssRNA, 2'-F C and U) RNA: GGGAGGACGAUGCGGGGUAGAUAUCACUGAGUCUGUAUAGCAGUGUCCCCAGACGACUCGCCCGA", "5.7 x Kd of 21a-21"),
    ("biased clone 29 (ssRNA, 2'-F C and U) RNA: GGGAGGACGAUGCGGGGAGUUUAUUACAGCGUCUGUAUAUCUGUAGCCCCAGACGACUCGCCCGA", "1 x Kd of 21a-21"),
    ("biased clone 14 (ssRNA, 2'-F C and U) RNA: GGGAGGACGAUGCGGCGGGAUUAUUACUGAGUCUGUAUAGCAGUACCCCCAGACGACUCGCCCGA", "0.4 x Kd of 21a-21"),
    ("biased clone 28 (ssRNA, 2'-F C and U) RNA: GGGAGGACGAUGCGGAGGGAAUAUUACAGAGUAUGUAUAGCUGUACCCCCAGACGACUCGCCCGA", "1 x Kd of 21a-21"),
    ("biased clone 10 (ssRNA, 2'-F C and U) RNA: GGGAGGACGAUGCGGGGGCAUUAUUUCAGAGUCUGUAUAGCUGUAGCCCCAGACGACUCGCCCGA", "0.3 x Kd of 21a-21"),
    ("biased clone 30 (ssRNA, 2'-F C and U) RNA: GGGAGGACGAUGCGGUGAGGUUAUUACAGAGUCUGUAUAGCUGUACUCCCAGACGACUCGCCCGA", "2.4 x Kd of 21a-21"),
    ("biased clone 2 (ssRNA, 2'-F C and U) RNA: GGGAGGACGAUGCGGAGGCGUUAUUAGAGAGUCUGUAUAGCUCUAGCCCCAGACGACUCGCCGA", "0.6 x Kd of 21a-21"),
    ("biased clone 19 (ssRNA, 2'-F C and U) RNA: GGGAGGACGAUGCGGGCAGGUUAUUACAGAGUCUGUAUAGCUGUACUGCCAGACGACUCGCCCGA", "1 x Kd of 21a-21"),
    ("biased clone 11 (ssRNA, 2'-F C and U) RNA: GGGAGGACGAUGCGGGCGGAUUAUCACAGAGUAUGUAUAGCUGUGCCGCCAGACGACUCGCCCGA", "0.4 x Kd of 21a-21"),
    ("biased clone 7 (ssRNA, 2'-F C and U) RNA: GGGAGGACGAUGCGGGAGGGUUAUUAUAGAGUCUGCAUAGCUAUACCCCCAGACGACUCGCCCGA", "0.3 x Kd of 21a-21"),
    ("biased clone 9 (ssRNA, 2'-F C and U) RNA: GGGAGGACGAUGCGGUGAGAGUAUUACGGAGUAUGUAUAGCCGUACCCCCAGACGACUCGCCCGA", "0.3 x Kd of 21a-21"),
    ("biased clone 13 (ssRNA, 2'-F C and U) RNA: GGGAGGACGAUGCGGUGUGAAUAUUAGAGAGUCUGUAUAGCUCUACCCCCAGACGACUCGCCCGA", "0.2 x Kd of 21a-21"),
    ("biased clone 35 (ssRNA, 2'-F C and U) RNA: GGGAGGACGAUGCGGGGGGAGUAUUAAAGAGUCUGUAUAGCUUUACCCCCAGACGACUCGCCCGA", "0.8 x Kd of 21a-21"),
]
